Assay comment: Compound concentration in the CSF of rats
Assay type: in vivo
Condition label: rat, CSF, iv, 8.0 h, mean, read-out: CSF Concentration, Mean
Readout type: concentration at 8 h (ng/mL)
# unit: ng/mL | format: bare number

Returns the measured concentration at 8 h for the input compound. Input: `O=C(O)c1ccc(NC(=O)[C@@H]2CCC[C@H](C(=O)Nc3ccc(C(=O)O)cc3)C2)cc1`
1.5

* * *

Assay comment: Compound concentration in the CSF of rats
Format: in vivo
Condition label: rat, CSF, iv, 8.0 h, individual animals, read-out: CSF Concentration
Readout type: concentration at 8 h (ng/mL)
The reply should contain only the number, in ng/mL.

Please report the recorded concentration at 8 h for `O=C(O)c1ccc(NC(=O)[C@@H]2CCC[C@H](C(=O)Nc3ccc(C(=O)O)cc3)C2)cc1` .
1.2

* * *

Assay comment: Pharmacokinetic study in rats
Type: in vivo
Condition label: rat, in vivo, 10 mg/kg, PO
Readout type: Cmax (ng/mL)
Please give a number only; it is taken to be in ng/mL.

Which Cmax is reported for this compound? O=C(O)c1ccc(NC(=O)[C@@H]2CCC[C@H](C(=O)Nc3ccc(C(=O)O)cc3)C2)cc1 [B1]
29

* * *

Assay comment: Pharmacokinetic study in rats
Type: in vivo
Condition label: rat, in vivo, 10 mg/kg, PO
Readout type: bioavailability (%)
Provide the reading as a plain figure in %.

Return reported bioavailability; argument: `O=C(O)c1ccc(NC(=O)[C@@H]2CCC[C@H](C(=O)Nc3ccc(C(=O)O)cc3)C2)cc1`
1.25

* * *

Assay comment: Pharmacokinetic study in rats
Assay type: in vivo
Condition label: rat, in vivo, 1 mg/kg, IV
Readout type: AUC(0-t) (ng·h/mL)
Just the number please, in ng·h/mL, no unit attached.

So what's the measured AUC(0-t) for this one? O=C(O)c1ccc(NC(=O)[C@@H]2CCC[C@H](C(=O)Nc3ccc(C(=O)O)cc3)C2)cc1 [B1]
2950

* * *

Assay comment: Compound concentration in the CSF of rats
Assay type: in vivo
Condition label: rat, CSF, iv, 1.0 h, mean
Readout type: concentration at 1 h (ng/mL)
Enter your answer as a number in ng/mL; do not include the unit.

Can you look up the measured concentration at 1 h of `O=C(O)c1ccc(NC(=O)[C@@H]2CCC[C@H](C(=O)Nc3ccc(C(=O)O)cc3)C2)cc1` for me?
153

* * *

Assay comment: Pharmacokinetic study in rats
Type: in vivo
Condition label: rat, in vivo, 10 mg/kg, PO
Readout type: AUC(0-t) (ng·h/mL)
Respond numerically; units are ng·h/mL and should not be typed.

Looking for the measured AUC(0-t) of `O=C(O)c1ccc(NC(=O)[C@@H]2CCC[C@H](C(=O)Nc3ccc(C(=O)O)cc3)C2)cc1` , can you help?
267

* * *

Assay comment: Pharmacokinetic study in rats
Format: in vivo
Condition label: rat, in vivo, 1 mg/kg, IV
Readout type: AUC(0-inf) (ng·h/mL)
Report only the number, with the unit ng·h/mL understood.

Form field: reported AUC(0-inf) of `O=C(O)c1ccc(NC(=O)[C@@H]2CCC[C@H](C(=O)Nc3ccc(C(=O)O)cc3)C2)cc1`
2950

* * *

Assay comment: Compound concentration in the CSF of rats
Type: in vivo
Condition label: rat, CSF, iv, 0.5 h, mean
Readout type: concentration at 0.5 h (ng/mL)
Kindly answer with a numeric value in ng/mL, unit omitted.

Looking for the measured concentration at 0.5 h of `O=C(O)c1ccc(NC(=O)[C@@H]2CCC[C@H](C(=O)Nc3ccc(C(=O)O)cc3)C2)cc1` , can you help?
27
